Below: a set of entries, each annotated with reported IC50.
# Measured Target: Human HDAC7 (Homo sapiens, UniProt Q8WUI4)
# Construct: (a.a. 518-end) with N-terminal GST tag; GST (N); host or cells: baculovirus expression system
# Assay Overview: HDAC7 biochemical assay, class IIa-specific substrate
# Condition Parameters: read-out: HDAC Isoform IC50 (nM) 7

In the examples that follow, each entry is paired with its recorded IC50.
COc1ccc(N(Cc2ccc(-c3noc(C(F)(F)F)n3)s2)c2cnccn2)nn1 :: ≤ 10000 nM
FC(F)(F)c1nc(-c2ccc(CN(c3cnccn3)c3cc(CN4CCOCC4)ccn3)s2)no1 :: ≤ 10000 nM

Sure, the documented IC50 for FC(F)(F)c1nc(-c2ccc(CN(c3cnccn3)c3cc(CN4CCCC4)ccn3)s2)no1 is ≤ 1000 nM

Sure, the documented IC50 for FC(F)(F)c1nc(-c2ccc(CN(c3cnccn3)c3cnc(N4CCOCC4)cn3)s2)no1 is ≤ 10000 nM

Sure, the documented IC50 for COc1cncnc1N(Cc1ccc(-c2noc(C(F)(F)F)n2)s1)c1cnccn1 is ≤ 10000 nM

Sure, the documented IC50 for Cc1cnc(N(Cc2ccc(-c3noc(C(F)(F)F)n3)s2)c2cc(C(F)(F)F)cnn2)cn1 is ≤ 10000 nM

Sure, the documented IC50 for O=C(c1cncc(N(Cc2ccc(-c3noc(C(F)(F)F)n3)s2)c2cnccn2)c1)N1CCOCC1 is ≤ 500 nM

Sure, the documented IC50 for FC(F)(F)c1nc(-c2ccc(CN(c3cnccn3)c3cc(N4CCCC4)cnn3)s2)no1 is ≤ 10000 nM

----------
# Measured Target: Human HDAC7 (Homo sapiens)
# Construct: (a.a. 518-end) with N-terminal GST tag; GST (N); host or cells: baculovirus expression system
# Assay Overview: HDAC7 biochemical assay, class IIa-specific substrate
# Condition Parameters: read-out: HDAC Isoform IC50 (nM) 7
Quantity Measured: IC50

C[C@H]1CCCN1C(=O)c1cnnc(N(Cc2ccc(-c3noc(C(F)(F)F)n3)s2)c2cnccn2)c1 [Example GY] :: ≤ 10000 nM
FC(F)(F)c1nc(-c2ccc(CN(c3cnccn3)c3ccc(N4CCOCC4)nn3)s2)no1 [Example DJ] :: ≤ 10000 nM
O=C(c1cnnc(N(Cc2ccc(-c3noc(C(F)(F)F)n3)s2)c2cnccn2)c1)N1CCC1 [Example FS] :: ≤ 1000 nM

Sure, the documented IC50 for CC(=O)Nc1cnnc(N(Cc2ccc(-c3noc(C(F)(F)F)n3)s2)c2cnccn2)c1 [Example FM] is ≤ 1000 nM

----------
# Measured Target: Human HDAC7 (Homo sapiens, UniProt Q8WUI4)
# Construct: (a.a. 518-end) with N-terminal GST tag; GST (N); host or cells: baculovirus expression system
# Sequence (Q8WUI4 518-952 limits assumed): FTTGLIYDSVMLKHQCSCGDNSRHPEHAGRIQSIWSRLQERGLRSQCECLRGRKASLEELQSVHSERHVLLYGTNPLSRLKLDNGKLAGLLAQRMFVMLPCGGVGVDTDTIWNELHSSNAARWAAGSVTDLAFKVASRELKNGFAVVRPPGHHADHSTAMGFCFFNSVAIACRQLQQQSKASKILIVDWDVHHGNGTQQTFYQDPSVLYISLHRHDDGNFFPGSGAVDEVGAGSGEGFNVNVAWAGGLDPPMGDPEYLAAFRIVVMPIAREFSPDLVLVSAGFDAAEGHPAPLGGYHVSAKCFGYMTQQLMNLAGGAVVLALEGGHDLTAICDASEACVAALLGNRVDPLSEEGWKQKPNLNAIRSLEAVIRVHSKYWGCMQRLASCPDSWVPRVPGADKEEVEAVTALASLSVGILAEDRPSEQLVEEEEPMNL
# Assay Overview: HDAC7 biochemical assay, class IIa-specific substrate
# Condition Parameters: read-out: HDAC Isoform IC50 (nM) 7
Quantity Measured: IC50

FC(F)(F)c1cnnc(N(Cc2ccc(-c3noc(C(F)(F)F)n3)s2)c2ccc(C(F)(F)F)nn2)c1 [Example EV] :: ≤ 10000 nM
COc1cnc(N(Cc2ccc(-c3noc(C(F)(F)F)n3)s2)c2cnccn2)nc1 [Example AY] :: ≤ 10000 nM
FC(F)(F)c1nc(-c2ccc(CN(c3cnccn3)c3cncnc3C(F)(F)F)s2)no1 [Example DA] :: ≤ 10000 nM
FC(F)(F)c1nc(-c2ccc(CN(c3ccccn3)c3cnccn3)s2)no1 [Example V] :: ≤ 10000 nM
Cn1ccc2nc(N(Cc3ccc(-c4noc(C(F)(F)F)n4)s3)c3cnccn3)cnc21 [Example BO] :: ≤ 10000 nM
Cc1cc(N(Cc2ccc(-c3noc(C(F)(F)F)n3)s2)c2cnccn2)ncn1 [Example CG] :: ≤ 10000 nM
O=C(c1ccc(N(Cc2ccc(-c3noc(C(F)(F)F)n3)s2)c2cnccn2)nn1)N1CCCC1 [Example FI] :: ≤ 500 nM

Sure, the documented IC50 for O=C(c1ccc(N(Cc2ccc(-c3noc(C(F)(F)F)n3)s2)c2cnccn2)nn1)N1CCCCC1 [Example FG] is ≤ 500 nM
